Documented Kp across a set of molecules
Assay: clinical
Conditions: both, human, in vivo
Experimental: Adult patients having a clinical diagnosis of VAP, with a Gram-positive or Gram-negative organism in a tracheal aspirate sample were expected to be on mechanical ventilation for ≧3 days. Each adult patient received 3 escalating doses of a mixture of 50 mg/mL amikacin and 20 mg/mL fosfomycin, with doses separated by 24±2 hours (Table 1). […]

NCC[C@H](O)C(=O)N[C@@H]1C[C@H](N)[C@@H](O[C@H]2O[C@H](CN)[C@@H](O)[C@H](O)[C@H]2O)[C@H](O)[C@H]1O[C@H]1O[C@H](CO)[C@@H](O)[C@H](N)[C@H]1O    > 2000

Task item: Dear colleague, I am looking for the recorded Kp of the following molecule: `C[C@@H]1O[C@@H]1P(=O)(O)O`
Reply: > 2000
